The origin of these recorded values is patent US11066414B2.

# Target System: UniProt:P41279
# Sequence (P41279 30-397): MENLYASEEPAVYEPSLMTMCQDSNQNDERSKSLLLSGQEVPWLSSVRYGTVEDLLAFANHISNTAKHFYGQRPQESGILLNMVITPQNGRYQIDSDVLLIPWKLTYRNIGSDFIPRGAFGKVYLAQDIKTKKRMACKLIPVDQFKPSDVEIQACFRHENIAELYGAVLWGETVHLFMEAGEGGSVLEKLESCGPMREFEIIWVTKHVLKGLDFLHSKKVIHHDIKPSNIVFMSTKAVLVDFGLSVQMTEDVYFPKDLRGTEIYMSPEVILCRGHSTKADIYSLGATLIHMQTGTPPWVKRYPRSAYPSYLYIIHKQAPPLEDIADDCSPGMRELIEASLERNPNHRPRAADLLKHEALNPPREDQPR
# Assay Method Text: High Throughput Cot Biochemical Assay
# Setup Conditions: IC50 HTRF, Cot HTRF (TR-FRET) biochemical assay
Readout Type: IC50 (nM)
Just the number in nM, nothing appended.

**Q:** # input compound: [2H][C@](Nc1cc(C#N)c2ncc(C#N)c(N[C@H](CC#N)c3ccccc3)c2c1)(c1ccc(F)nc1)c1cn(C2CC2)nn1 ; wanted: its IC50
**A:** 3

**Q:** # input compound: N#Cc1cnc2c(Cl)cc(N[C@@H](c3cccnc3)c3cn(C4COC4)nn3)cc2c1Nc1cccc(Cl)c1 ; wanted: its IC50
**A:** 6

**Q:** # input compound: CC[C@@H](Nc1c(C#N)cnc2c(Cl)cc(N[C@@H](c3cccnc3)c3cn(C(C)C)nn3)cc12)c1ccccc1 ; wanted: its IC50
**A:** 2

**Q:** # input compound: CC(C)(C)CNc1c(C#N)cnc2c(C#N)cc(N[C@H](c3cn(C4(C(F)(F)F)CC4)nn3)c3cccc4ncccc34)cc12 ; wanted: its IC50
**A:** 4

**Q:** # input compound: [2H][C@](Nc1cc(OC)c2ncc(C#N)c(NCC(C)(C)C)c2c1)(c1ccc(F)nc1)c1cn(C2CC2)nn1 ; wanted: its IC50
**A:** 49

**Q:** # input compound: CC(C)(C)CNc1c(C#N)cnc2c(Cl)cc(N[C@H](c3cn(C4CC4)nn3)c3cccc4[nH]ncc34)cc12 ; wanted: its IC50
**A:** 2

**Q:** # input compound: Cc1nc(F)ccc1[C@H](Nc1cc(Cl)c2ncc(C#N)c(NCC(C)(C)C)c2c1)c1cn(C(C)(C)C(F)F)nn1 ; wanted: its IC50
**A:** 4

**Q:** # input compound: Cc1nc(F)ccc1[C@H](Nc1cc(Cl)c2ncc(C#N)c(NCC(C)(C)CC#N)c2c1)c1cn(C2(C(F)F)CC2)nn1 ; wanted: its IC50
**A:** 10

**Q:** # input compound: CC(C)(C)CNc1c(C#N)cnc2c(Cl)cc(N[C@H](c3cn(C4(C(F)(F)F)CC4)nn3)c3cccc4c(=O)[nH]ccc34)cc12 ; wanted: its IC50
**A:** 6

**Q:** # input compound: CCc1ncccc1[C@H](Nc1cc(C#N)c2ncc(C#N)c(NCC(C)(C)C)c2c1)c1cn(C2(C(F)F)CC2)nn1 ; wanted: its IC50
**A:** 2

**Q:** # input compound: Cc1scnc1[C@H](Nc1cc(Cl)c2ncc(C#N)c(NCC(C)(C)C)c2c1)c1cn(C2(C(F)F)CC2)nn1 ; wanted: its IC50
**A:** 102

**Q:** # input compound: CC(C)n1cc([C@@H](Nc2cc(Cl)c3ncc(C#N)c(N[C@H](CCO)c4ccccc4)c3c2)c2cccnc2)nn1 ; wanted: its IC50
**A:** 305

**Q:** # input compound: CC(C)n1cc([C@@H](Nc2cc(Cl)c3ncc(C#N)c(Nc4ccc(F)c(Cl)c4)c3c2)c2csc3c2CCNC3)nn1 ; wanted: its IC50
**A:** 3
